System: H9c2
PROTOCOL: Cytoprotective activity against OGD-induced myocardial ischemic injury in rat H9c2 cells assessed as cell viability at 50 uM preincubated for 12 hrs followed by exposure to OGD condition for 3 hrs by CCK8 assay (reference value: 49.23 to 50.05 %)
Assay type: functional
EXPERIMENTAL_CONDITIONS: time 15 hrs, read-out: Activity
Kindly supply the reported viability at 50 µM values for the records listed here.
State the answer as a number, implicitly in %.

I looked up COc1ccc(CC(=O)NC[C@]23O[C@H]2[C@@H](O)[C@@H]2C=CO[C@@H](O[C@@H]4O[C@H](CO)[C@@H](O)[C@H](O)[C@H]4O)[C@@H]23)cc1OC and its viability at 50 µM for H9c2 was 59.4

I looked up CC(C)(C)c1ccc(C(=O)NC[C@]23O[C@H]2[C@@H](O)[C@@H]2C=CO[C@@H](O[C@@H]4O[C@H](CO)[C@@H](O)[C@H](O)[C@H]4O)[C@@H]23)cc1 and its viability at 50 µM for H9c2 was 70.9

I looked up COc1cc(OC[C@]23O[C@H]2[C@@H](O)[C@@H]2C=CO[C@@H](O[C@@H]4O[C@H](CO)[C@@H](O)[C@H](O)[C@H]4O)[C@@H]23)cc(OC)c1OC and its viability at 50 µM for H9c2 was 55.1

I looked up O=C(NC[C@]12O[C@H]1[C@@H](O)[C@@H]1C=CO[C@@H](O[C@@H]3O[C@H](CO)[C@@H](O)[C@H](O)[C@H]3O)[C@@H]12)c1cccnc1 and its viability at 50 µM for H9c2 was 59.6

I looked up O=C(NC[C@]12O[C@H]1[C@@H](O)[C@@H]1C=CO[C@@H](O[C@@H]3O[C@H](CO)[C@@H](O)[C@H](O)[C@H]3O)[C@@H]12)c1cncnc1 and its viability at 50 µM for H9c2 was 57.5

I looked up COc1ccc(/C=C/C(=O)NC[C@]23O[C@H]2[C@@H](O)[C@@H]2C=CO[C@@H](O[C@@H]4O[C@H](CO)[C@@H](O)[C@H](O)[C@H]4O)[C@@H]23)cc1OC and its viability at 50 µM for H9c2 was 56.7

I looked up OC[C@H]1O[C@@H](O[C@@H]2OC=C[C@H]3[C@H](O)[C@@H]4O[C@]4(COc4cccc5c4CCCC5)[C@@H]23)[C@H](O)[C@@H](O)[C@@H]1O and its viability at 50 µM for H9c2 was 55.5

I looked up O=C(NC[C@]12O[C@H]1[C@@H](O)[C@@H]1C=CO[C@@H](O[C@@H]3O[C@H](CO)[C@@H](O)[C@H](O)[C@H]3O)[C@@H]12)c1ccccc1 and its viability at 50 µM for H9c2 was 70

I looked up O=C(NC[C@]12O[C@H]1[C@@H](O)[C@@H]1C=CO[C@@H](O[C@@H]3O[C@H](CO)[C@@H](O)[C@H](O)[C@H]3O)[C@@H]12)c1ccc2occc2c1 and its viability at 50 µM for H9c2 was 58

I looked up OC[C@H]1O[C@@H](O[C@@H]2OC=C[C@H]3[C@H](O)[C@@H]4O[C@]4(COc4ccc(-c5ccccc5)cc4)[C@@H]23)[C@H](O)[C@@H](O)[C@@H]1O and its viability at 50 µM for H9c2 was 53.2

I looked up OC[C@H]1O[C@@H](O[C@@H]2OC=C[C@H]3[C@H](O)[C@@H]4O[C@]4(COc4ccc5c(c4)OCO5)[C@@H]23)[C@H](O)[C@@H](O)[C@@H]1O and its viability at 50 µM for H9c2 was 60.7

###

Test system: H9c2
PROTOCOL: Cytoprotective activity against OGD-induced myocardial ischemic injury in rat H9c2 cells assessed as cell viability at 50 uM preincubated for 12 hrs followed by exposure to OGD condition for 3 hrs by CCK8 assay (reference value: 49.23 to 50.05 %)
Type: functional
EXPERIMENTAL_CONDITIONS: time 15 hrs, read-out: Activity
Kindly supply the reported viability at 50 µM values for the records listed here.
State the answer as a number, implicitly in %.

// sample OC[C@H]1O[C@@H](O[C@@H]2OC=C[C@H]3[C@H](O)[C@@H]4O[C@]4(COc4cccc5ccccc45)[C@@H]23)[C@H](O)[C@@H](O)[C@@H]1O , its viability at 50 µM was 58.8

// sample O=C(NC[C@]12O[C@H]1[C@@H](O)[C@@H]1C=CO[C@@H](O[C@@H]3O[C@H](CO)[C@@H](O)[C@H](O)[C@H]3O)[C@@H]12)c1ccco1 , its viability at 50 µM was 55.6

// sample OC[C@H]1O[C@@H](O[C@@H]2OC=C[C@H]3[C@H](O)[C@@H]4O[C@]4(COc4ccc(C5CCCC5)cc4)[C@@H]23)[C@H](O)[C@@H](O)[C@@H]1O , its viability at 50 µM was 60.8

// sample OC[C@H]1O[C@@H](O[C@@H]2OC=C[C@H]3[C@H](O)[C@@H]4O[C@]4(CO)[C@@H]23)[C@H](O)[C@@H](O)[C@@H]1O , its viability at 50 µM was 50.7

// sample OC[C@H]1O[C@@H](O[C@@H]2OC=C[C@H]3[C@H](O)[C@@H]4O[C@]4(COc4ccc(C(F)(F)F)cc4)[C@@H]23)[C@H](O)[C@@H](O)[C@@H]1O , its viability at 50 µM was 72
